The origin of these recorded values is PubChem BioAssay (NCI).

- System: T-47D breast
- experiment: NCI tumour cell line growth inhibition, 48 h
quantityMeasured: TGI

Completed entries (count: 3):
O=[N+]([O-])c1ccc2[nH]cc(-c3c4ccsc4cc4[nH]c5ccc([N+](=O)[O-])cc5c34)c2c1: 4.46 µM
O=c1cc(-c2ccccc2)[nH]c2cccc(S)c12: > 100 µM
Cc1ccc(S(=O)(=O)N2CCN(CCN(C)CCN3CCN(S(=O)(=O)c4ccc(C)cc4)CC3)CC2)cc1: 48 µM

Query string: // lookup TGI for O=C1c2ccccc2CC12Cc1ccc3c(c1C2)CCC3 (stereo not drawn)
Result string: > 100 µM

Query string: And `O=C1c2cc(Br)ccc2-c2c1c1ccc([N+](=O)[O-])cc1c(=O)n2CCCCl` ?
Result string: 18.8 µM

Query string: Query CSC1SCC2C(=O)N(C)C3(CC3C)C(=O)OCC(NC(=O)c3nc4ccccc4cc3O)C(=O)NC(C)C(=O)N(C)C1C(=O)N(C)C1(CC1C)C(=O)OCC(NC(=O)c1nc3ccccc3cc1O)C(=O)NC(C)C(=O)N2C (stereo not drawn) next
Result string: > 100 µM

Query string: Entry `O=C1NC(N/N=C\c2ccccc2)=N/C1=C/c1ccc(Cl)cc1` please
Result string: > 100 µM

Query string: How about this compound: O=C(O)C1CCc2ccc3ccccc3c2C1c1cccc2ccccc12 (stereo not drawn)
Result string: > 100 µM
